Consider the following variants; for each one, report its folding stability dG.
B1: EHEE_rd2_1257 (parent)
chain: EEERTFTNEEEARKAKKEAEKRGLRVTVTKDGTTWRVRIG

variants of: B1; assay: folding stability dG (cDNA display proteolysis); higher = more stable; conditions: PBS, room temperature
Quote the value and follow it with the unit of measurement.

Solved cases below.
> print(dat)
    mutation.label  observed.result
 1            I39V    1.64 kcal/mol
 2            E11P  -0.587 kcal/mol
 3             N8H    1.34 kcal/mol
 4             E2L    2.26 kcal/mol
 5             F6Y    2.19 kcal/mol
 6            A12L   0.876 kcal/mol
 7            E20L    1.69 kcal/mol
 8            K30L    1.99 kcal/mol
 9             E9K    1.58 kcal/mol
10            G23H   0.993 kcal/mol

List folding stability dG for every entry below, keeping the order given.
1. V37L
2. T7G
3. F6T
4. E2D
5. E9D
6. A19Y

Completion:
1. 2.17 kcal/mol
2. 1.68 kcal/mol
3. -0.137 kcal/mol
4. 1.75 kcal/mol
5. 0.502 kcal/mol
6. 2.37 kcal/mol

Prompt: Entry "K14E" has what folding stability dG?
Completion: 2.19 kcal/mol
